These measurements were taken from patent US6586402B1.

Target: LH-RH receptors (Rattus norvegicus, UniProt P30969)
Sequence (P30969 1-327): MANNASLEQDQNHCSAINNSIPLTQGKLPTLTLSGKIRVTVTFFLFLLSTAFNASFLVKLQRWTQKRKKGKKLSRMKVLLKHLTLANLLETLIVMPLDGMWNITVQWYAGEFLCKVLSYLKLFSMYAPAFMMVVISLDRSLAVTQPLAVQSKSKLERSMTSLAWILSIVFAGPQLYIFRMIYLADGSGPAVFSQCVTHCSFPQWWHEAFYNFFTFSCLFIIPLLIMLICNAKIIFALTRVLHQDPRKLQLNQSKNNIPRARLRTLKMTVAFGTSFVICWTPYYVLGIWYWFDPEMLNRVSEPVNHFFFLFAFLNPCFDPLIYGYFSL
Assay: Stimulation of testosterone secretion in adult male rats after subcutaneous injection (agonist activity in vivo)
Set-up: exert an agonist activity upon the LH-RH receptors in vivo; from tissue; host or cells: whole animal, adult male Sprague-Dawley rats; species or system Sprague-Dawley rats
Conditions: Table 2; 10 ng/kg subcutaneous in PBS, blood two hours later, male Sprague-Dawley rats; vehicle 2.7 ± 0.3
Square brackets hold non-standard residues; d marks the D form. Peptide text beside a SMILES is read from it. tBuAla = CC(C)(C)C[C@H](N)C(=O)O; pGlu = O=C1CC[C@@H](C(=O)O)N1
Below, each of the compounds is paired with its reported Total plasma testosterone value.
Write the number in nmol/L without appending the unit.

// known answers, use as guide
stdin: Identify the measured Total plasma testosterone of CC(C)C[C@H](NC(=O)[C@@H](C)NC(=O)[C@H](Cc1ccc(O)cc1)NC(=O)[C@H](CO)NC(=O)[C@H](Cc1c[nH]c2ccccc12)NC(=O)[C@H](Cc1c[nH]cn1)NC(=O)[C@@H]1CCC(=O)N1)C(=O)N[C@@H](CCCNC(=N)N)C(=O)N1CCC[C@H]1C(=O)NCC(N)=O [[D-Ala^6]-LH-RH, reference compound] for LH-RH receptors (Rattus norvegicus, UniProt P30969).
stdout: 6.4

stdin: Enter reported Total plasma testosterone observed with LH-RH receptors (Rattus norvegicus, UniProt P30969) for CCNC(=O)[C@@H]1CCCN1C(=O)[C@H](CCCN=C(N)N)NC(=O)[C@H](CC(C)C)NC(=O)[C@@H](Cc1c[nH]c2ccccc12)NC(=O)[C@H](Cc1ccc(O)cc1)NC(=O)[C@H](CO)NC(=O)[C@H](Cc1c[nH]c2ccccc12)NC(=O)[C@H](Cc1cnc[nH]1)NC(=O)[C@@H]1CCC(=O)N1 [Deslorelin, reference compound]
stdout: 11.8

Moving on to another compound below.
stdin: So what Total plasma testosterone did CC(C)(C)C[C@H](NC(=O)[C@@H](Cc1ccccc1)NC(=O)[C@H](Cc1ccc(O)cc1)NC(=O)[C@H](CO)NC(=O)[C@H](Cc1c[nH]c2ccccc12)NC(=O)[C@H](Cc1c[nH]cn1)NC(=O)[C@@H]1CCC(=O)N1)C(=O)N[C@@H](CCCNC(=N)N)C(=O)N1CCC[C@H]1C(=O)NCC(N)=O [Example 9] ([pGlu]HWSY[dF][tBuAla]RPG-NH2) get with LH-RH receptors (Rattus norvegicus, UniProt P30969)?
stdout: 30.9

====

Molecular target: LH-RH receptors (Rattus norvegicus, UniProt P30969)
Sequence (P30969 1-327): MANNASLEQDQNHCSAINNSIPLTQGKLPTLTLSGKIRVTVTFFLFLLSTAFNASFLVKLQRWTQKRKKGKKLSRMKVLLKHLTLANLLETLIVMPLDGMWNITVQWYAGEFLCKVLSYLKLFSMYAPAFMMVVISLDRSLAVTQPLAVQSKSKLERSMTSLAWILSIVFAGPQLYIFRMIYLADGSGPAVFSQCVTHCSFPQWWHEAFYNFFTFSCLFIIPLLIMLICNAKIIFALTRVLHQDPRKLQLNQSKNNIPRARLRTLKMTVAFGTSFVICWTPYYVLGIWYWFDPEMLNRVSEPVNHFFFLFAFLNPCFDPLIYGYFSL
Details: 0.25 μg/rat s.c.
Square brackets hold non-standard residues; d marks the D form. Peptide text beside a SMILES is read from it. dPhe(4-Cl) = N[C@H](Cc1ccc(Cl)cc1)C(=O)O; d2Nal = N[C@H](Cc1ccc2ccccc2c1)C(=O)O; d(hCit) = NC(=O)NCCCC[C@@H](N)C(=O)O; tBuAla = CC(C)(C)C[C@H](N)C(=O)O; d3Pal = N[C@H](Cc1cccnc1)C(=O)O
ASSAY READOUT: % of inhibition of ovulation (%)
State the answer as a number, implicitly in %.

stdin: Report % of inhibition of ovulation for CC(=O)N[C@H](Cc1ccc2ccccc2c1)C(=O)N[C@H](Cc1ccc(Cl)cc1)C(=O)N[C@H](Cc1cccnc1)C(=O)N[C@@H](CO)C(=O)N[C@@H](Cc1ccc(O)cc1)C(=O)N[C@H](CCCCNC(N)=O)C(=O)N[C@@H](CC(C)(C)C)C(=O)N[C@@H](CCCNC(=N)N)C(=O)N1CCC[C@H]1C(=O)N[C@H](C)C(N)=O [Example 19] (Ac-[d2Nal][dPhe(4-Cl)][d3Pal]SY[d(hCit)][tBuAla]RP[dA]-NH2) please.
stdout: 40
